TARGET_OF_ASSAY: T1, N1 binding to cell surface expressed hJ1 (Homo sapiens, UniProt P78504)
T1 construct: cell expressed full length human J1 (hJ1; HEK293 transfectants); expressed in transfected cells; host or cells: HEK293
RUN_DESCRIPTION: Notch binding blocking assay (FACS): N1 EGF11-13 beads staining human J1-expressing cells
RECORDED_CONDITIONS: final antibody concentration 1.0 μg/ml
MEASUREMENT_NAME: Blocking of Notch1 binding to cell surface Jagged 1

J1-183D variant 1: humanised/de-immunised J1-183D: J1-183D_VL_1 + J1-183D_VH_1 (antibody, V domains shown) VH: QVQLVQSGAELKKPGASVKVSCKVSGYAFTDYAIHWIRQAPGQGLEWMGIINTYYGDSKYNQKFKDRVTMTVDKSTSTAYMELSSLRSEDTAVYYCARGYDGFAYWGQGTLVTVSSASTKGP VL: DIQMTQSPSSLSASVGDRVTITCRTSENIYSYLTWYQQKPGKAPKLLVYNAKILAAGVPSRFSGSGSGTDFTLTISSLQPEDFATYYCQHHYDIPWTFGGGTKLEIKRT    + (Complete blocking)
J1-65D variant 6: humanised/de-immunised J1-65D: J1-65D_VL_2 + J1-65D_VH_2 (antibody, V domains shown) VH: QVQLVQSGAELKKPGSSVKVSCKASGYTFTDYEMHWVRQAPGQGLEWMGAIQPGGGGTAYAQKFKGRVTLTADKSTSTAYMELSSLRSEDTAVYYCTRRGYDDYPFAYWGQGTLVTVSSASTKGP VL: DIQMTQSPSSLSASVGDRVTITCRASGNIHNYLAWYQQKPGKAPKLLIYNAKTLADAVPSRFSGSGSGTDYTLTISSLQPEDFATYYCQHFWSAPWTFGGGTKLEIKRT    + (Complete blocking)
